tested on: TBK1 (Homo sapiens, UniProt Q9UHD2)
Construct: His-tag; made in house; host or cells: Sf9 insect cells
Sequence (Q9UHD2 1-729): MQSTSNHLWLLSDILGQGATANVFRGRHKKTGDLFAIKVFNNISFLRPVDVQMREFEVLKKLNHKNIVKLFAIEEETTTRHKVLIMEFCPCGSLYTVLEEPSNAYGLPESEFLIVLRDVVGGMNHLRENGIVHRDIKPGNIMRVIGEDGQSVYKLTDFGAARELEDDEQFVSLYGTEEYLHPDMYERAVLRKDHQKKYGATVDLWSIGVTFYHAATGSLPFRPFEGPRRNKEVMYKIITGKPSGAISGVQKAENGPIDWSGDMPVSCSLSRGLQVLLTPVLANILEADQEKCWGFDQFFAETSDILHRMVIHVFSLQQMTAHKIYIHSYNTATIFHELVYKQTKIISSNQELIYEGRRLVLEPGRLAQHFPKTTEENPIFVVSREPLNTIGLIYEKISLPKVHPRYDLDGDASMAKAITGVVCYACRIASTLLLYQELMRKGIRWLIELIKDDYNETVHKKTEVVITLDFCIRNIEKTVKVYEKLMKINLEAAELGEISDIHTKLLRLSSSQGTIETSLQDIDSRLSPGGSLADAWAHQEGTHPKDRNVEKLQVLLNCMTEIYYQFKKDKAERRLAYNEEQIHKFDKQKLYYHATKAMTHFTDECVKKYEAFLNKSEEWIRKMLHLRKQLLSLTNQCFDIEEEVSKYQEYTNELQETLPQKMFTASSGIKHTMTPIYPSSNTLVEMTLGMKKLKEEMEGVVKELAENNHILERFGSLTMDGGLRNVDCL
method description: In-vitro TBK1 kinase assay ([γ33]ATP filter-plate)
Format: biochemical
condition label: Table 3; read-out: TBK1 IC50
Measured IC50, listed per entry.
Numeric answer only, unit nM assumed.

Sample records with IC50:
COCCOC1CN(c2cc(Nc3nccc(-c4ccc(OC5CCOCC5)c(C#N)c4)n3)ccc2C)C1 : 1
N#Cc1cc(-c2ccnc(Nc3ccc(CO)cc3)n2)ccc1OC1CCOCC1 : 0.5
N#Cc1cc(-c2ccnc(Nc3ccc(N4CCOCC4)cc3)n2)ccc1NC(=O)CC(F)(F)F : 0.3
CC(C)COc1ccc(-c2ccnc(Nc3cccc(CS(=O)(=O)NCCO)c3)n2)cc1C#N : 0.4

(Q) IC50 for `N#Cc1cc(-c2ccnc(Nc3ccc(N4CCN(CCO)CC4)cc3)n2)ccc1OCC1CC1` ?
(A) 0.3

(Q) IC50 for `COCCNC(=O)Nc1cccc(Nc2nccc(-c3ccc(OC4CCOCC4)c(C#N)c3)n2)c1` ?
(A) 1.3

(Q) IC50 for `N#Cc1cc(-c2ccnc(Nc3cccc(-c4nnn[nH]4)c3)n2)ccc1OC1CCOCC1` ?
(A) 2

(Q) IC50 for `CN(C)S(=O)(=O)Cc1cccc(Nc2nccc(-c3ccc(OC4CCOCC4)c(C#N)c3)n2)c1` ?
(A) 0.4
